All values here come from patent US9399649B2.

>  <compound>
COc1ccc(-c2cc3ccc(N4CCN[C@@H](C)C4)cc3c(=O)o2)cc1 [Cpd 31]

>  <melting point>
129 to 131 °C

$$$$
>  <compound>
Cc1cn2cc(-c3cc4ccc(C5CCNCC5)cc4c(=O)o3)nc2c(C)n1 [Cpd 96]

>  <melting point>
218 to 220 °C

$$$$
>  <compound>
COc1ccc(-c2cc3ccc(N4C[C@@H](C)N[C@@H](C)C4)cc3c(=O)o2)cc1 [Cpd 29]

>  <melting point>
109 to 110 °C

$$$$
>  <compound>
Cc1cn2cc(-c3cc4ccc(N5CCN(CCO)CC5)cc4c(=O)o3)nc2c(C)n1 [Cpd 75]

>  <melting point>
248 to 250 °C

$$$$
>  <compound>
COc1ccc(-c2cc3ccc(N4CCN(C)[C@@H](C)C4)cc3c(=O)o2)cc1OC [Cpd 67]

>  <melting point>
138 to 140 °C

$$$$
>  <compound>
CCN1CCN(c2ccc3cc(-c4cn5cc(C)nc(C)c5n4)oc(=O)c3c2)CC1 [Cpd 73]

>  <melting point>
238 to 240 °C

$$$$
>  <compound>
O=c1oc(-c2nc3ccccc3s2)cc2ccc(N3CCNCC3)cc12 [Cpd 8]

>  <melting point>
324 to 326 °C

$$$$
>  <compound>
COCCN1CCN(c2ccc3cc(-c4cn5cc(C)nc(C)c5n4)oc(=O)c3c2)C[C@@H]1C [Cpd 146]

>  <melting point>
221 to 226 °C

$$$$
>  <compound>
CCN1CCN(c2ccc3cc(-c4cn5cc(C)nc(C)c5n4)oc(=O)c3c2)C[C@@H]1C [Cpd 135]

>  <melting point>
238 to 243 °C

$$$$

---

assay-endpoint: melting point

>  <compound>
O=c1oc(-c2ccc3c(c2)OCO3)cc2ccc(N3CCNCC3)cc12 [Cpd 12]

>  <reported-measurement>
267 to 269 °C

$$$$
>  <compound>
CN1CCN(c2ccc3cc(-c4ccc5nn(C)cc5c4)oc(=O)c3c2)CC1 [Cpd 157]

>  <reported-measurement>
239 to 240 °C

$$$$
>  <compound>
Cc1cn2cc(-c3cc4ccc(N5CCN(C(C)C)CC5)cc4c(=O)o3)nc2c(C)n1 [Cpd 74]

>  <reported-measurement>
260 to 262 °C

$$$$
>  <compound>
CCCN1CC=C(c2ccc3cc(-c4cn5cc(C)nc(C)c5n4)oc(=O)c3c2)CC1 [Cpd 95]

>  <reported-measurement>
226 to 228 °C

$$$$
>  <compound>
Cc1cn2cc(-c3cc4ccc(N5CCN(C(C)C)CC5)cc4c(=O)o3)nc2cn1 [Cpd 128]

>  <reported-measurement>
231 to 236 °C

$$$$
>  <compound>
Cc1nc(Cl)cn2cc(-c3cc4ccc(N5CCN(C(C)C)CC5)cc4c(=O)o3)nc12 [Cpd 101]

>  <reported-measurement>
286 to 291 °C

$$$$

---

This section presents molecules with their documented melting point values.

>  <structure>
Cc1nc(Cl)cn2cc(-c3cc4ccc(N5CCNCC5)cc4c(=O)o3)nc12

>  <melting point>
221 to 226 °C

$$$$
>  <structure>
Cc1nc(Cl)cn2cc(-c3cc4ccc(C5=CCNCC5)cc4c(=O)o3)nc12

>  <melting point>
269 to 273 °C

$$$$
>  <structure>
C[C@H]1CN(c2ccc3cc(-c4ccccn4)oc(=O)c3c2)CCN1

>  <melting point>
343 to 345 °C

$$$$
>  <structure>
CCOc1ccc(-c2cc3ccc(N4CCN[C@@H](C)C4)cc3c(=O)o2)cc1

>  <melting point>
239 to 240 °C

$$$$
>  <structure>
CN1CCN(c2ccc3cc(-c4ccc5c(c4)OCCO5)oc(=O)c3c2)CC1

>  <melting point>
163 to 165 °C

$$$$
